Molecular target: ATeam1.03YEMK R103A/R115E
Construct: YEMK epsilon subunit flanked by mseCFP and mVenus; polyhistidine-tagged
Test: Steady-state FRET ratio ATP dose response of 0.125 uM purified ATeam1.03 or ATeam1.03YEMK sensor at room temperature in 50 mM MOPS-KOH pH 7.3, 50 mM KCl, 0.5 mM free Mg2+, 0.05% Triton-X100 (4 to 9 replicates).
Details: SD, n = 4; read-out: ATP Affinity Kapp (ATeam1.03 and ATeam1.03YEMK)
reportedMetric: Kd (mM)
Give the quantity in mM, number only.

The compound listed as Nc1ncnc2c1ncn2[C@@H]1O[C@H](COP(=O)(O)OP(=O)(O)OP(=O)(O)O)[C@@H](O)[C@H]1O [ATP, Adenosine triphosphate] has a reported Kd of 1.9

###

Target: ATeam3.10 R103E (Bacillus sp. PS3, UniProt A0A0M5MQR7, R103E)
Construct: gene uncC; epsilon subunit flanked by mseCFP and mVenus; polyhistidine-tagged
Sequence (A0A0M5MQR7 entry or part of it R103E): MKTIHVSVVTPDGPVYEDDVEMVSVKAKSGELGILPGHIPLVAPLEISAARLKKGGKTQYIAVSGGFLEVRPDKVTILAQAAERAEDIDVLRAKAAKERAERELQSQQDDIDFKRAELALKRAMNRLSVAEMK
Assay: Steady-state FRET ratio ATP dose response of 0.125 uM purified ATeam3.10 sensor at room temperature in 50 mM MOPS-KOH pH 7.3, 50 mM KCl, 0.5 mM free Mg2+, 0.05% Triton-X100 (4 to 9 replicates).
Format: binding
Settings: SD, n = 4; read-out: ATP Affinity Kapp
reportedMetric: Kd (µM)
Give the quantity in µM, number only.

Value (Kd, ATeam3.10 R103E (Bacillus sp. PS3, UniProt A0A0M5MQR7, R103E)) for record Nc1ncnc2c1ncn2[C@@H]1O[C@H](COP(=O)(O)OP(=O)(O)OP(=O)(O)O)[C@@H](O)[C@H]1O [ATP, Adenosine triphosphate] = 0.6
